# targetOrSystem: KPC-2 β-lactamase (Klebsiella pneumoniae, UniProt Q9F663)
# Construct: made in house; host or cells: E. coli BL21(DE3)
# Sequence (Q9F663 25-293, looked up): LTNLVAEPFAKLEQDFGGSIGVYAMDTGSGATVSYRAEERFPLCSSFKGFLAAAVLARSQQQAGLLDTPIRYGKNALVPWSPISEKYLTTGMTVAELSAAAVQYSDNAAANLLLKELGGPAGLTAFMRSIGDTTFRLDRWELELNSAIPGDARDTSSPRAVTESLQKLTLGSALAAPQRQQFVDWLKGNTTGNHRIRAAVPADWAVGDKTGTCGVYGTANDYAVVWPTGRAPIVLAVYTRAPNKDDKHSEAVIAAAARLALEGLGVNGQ
# assayRemarks: β-Lactamase inhibition enzyme assay, KPC-2
# Assay type: biochemical
pIC50: −log10 of the molar value.
reportedMetric: pIC50

Query: Give recorded pIC50. `O=C(O)c1cccc2c1OB(O)[C@@H](NC(=O)C1(c3ccccc3)CCNCC1)C2`
Result: > 7.00

###

# targetOrSystem: OXA-1 β-lactamase (Escherichia coli, UniProt P13661)
# Construct: made in house; host or cells: E. coli BL21(DE3)
# Sequence (P13661 26-276): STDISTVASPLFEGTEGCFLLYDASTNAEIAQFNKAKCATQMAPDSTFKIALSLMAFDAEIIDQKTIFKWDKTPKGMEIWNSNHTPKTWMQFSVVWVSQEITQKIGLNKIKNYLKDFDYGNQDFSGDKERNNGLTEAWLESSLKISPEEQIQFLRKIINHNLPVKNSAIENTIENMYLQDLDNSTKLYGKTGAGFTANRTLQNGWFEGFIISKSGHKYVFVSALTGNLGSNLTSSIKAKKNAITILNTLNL
# assayRemarks: β-Lactamase inhibition enzyme assay, OXA-1
# Assay type: biochemical
# Experimental: For SHV-5, Kpc-2, p99AmpC and OXA-1 β-lactamases, E. coli BL21(DE3) bacterial cells carrying expression plasmids (expressed as native untagged proteins) for the individual β-lactamases were grown in 1 L of Superbroth (Teknova Inc. Hollister, Calif.) supplemented with 100 μg/ml kanamycin selection and 1×5052 (0.5% glycerol, 0.05% glucose and 0.2% α-lactose) at 35° C. for 18-20 hours. […]
pIC50: −log10 of the molar value.
reportedMetric: pIC50

Query: Give recorded pIC50. `O=C(O)c1cccc2c1OB(O)[C@@H](NC(=O)C1(c3ccccc3)CCNCC1)C2`
Result: 6.00 to 7.00

###

# targetOrSystem: VIM-2 metallo β-lactamase (Pseudomonas aeruginosa)
# assayRemarks: β-Lactamase inhibition enzyme assay, VIM-2
# assaySetup: Nitrocefin 100 μM as substrate, 486 nm; 15 min at 37° C. with enzyme, PBS pH 7.4; read-out: Class B VIM-2 IC50
reportedMetric: IC50

Worked cases, answers included:
structureString	targetOrSystem	IC50
NCc1ccc(CC(=O)N[C@H]2Cc3cccc(C(=O)O)c3OB2O)cc1CN	VIM-2 metallo β-lactamase (Pseudomonas aeruginosa)	< 0.1 µM
Cc1ccc(C(=O)N[C@H]2Cc3cccc(C(=O)O)c3OB2O)cc1N	VIM-2 metallo β-lactamase (Pseudomonas aeruginosa)	0.1 to 1 µM
NCCn1ccc2c(C(=O)N[C@H]3Cc4cccc(C(=O)O)c4OB3O)cccc21	VIM-2 metallo β-lactamase (Pseudomonas aeruginosa)	0.1 to 1 µM
O=C(N[C@H]1Cc2cccc(C(=O)O)c2OB1O)c1csc2c1CCNC2	VIM-2 metallo β-lactamase (Pseudomonas aeruginosa)	0.1 to 1 µM

Consider the additional compound presented here.
Query: Give recorded IC50. `NCCn1ccc2ccc(C(=O)N[C@H]3Cc4cccc(C(=O)O)c4OB3O)cc21`
Result: < 0.1 µM

###

# targetOrSystem: VIM-2 metallo β-lactamase (Pseudomonas aeruginosa, UniProt Q9K2N0)
# assayRemarks: β-Lactamase inhibition enzyme assay, VIM-2
# assaySetup: Nitrocefin 100 μM as substrate, 486 nm; 15 min at 37° C. with enzyme, PBS pH 7.4; read-out: Class B VIM-2 IC50
reportedMetric: IC50

structureString	targetOrSystem	result
O=C(O)c1cccc2c1OB(O)[C@@H](NC(=O)C(F)(F)c1ccccc1)C2	VIM-2 metallo β-lactamase (Pseudomonas aeruginosa, UniProt Q9K2N0)	1000 to 10000 nM
O=C(N[C@H]1Cc2cccc(C(=O)O)c2OB1O)c1cnc2c(c1)CNC2	VIM-2 metallo β-lactamase (Pseudomonas aeruginosa, UniProt Q9K2N0)	100 to 1000 nM
NCc1cc(C(=O)N[C@H]2Cc3cccc(C(=O)O)c3OB2O)cnc1CN	VIM-2 metallo β-lactamase (Pseudomonas aeruginosa, UniProt Q9K2N0)	100 to 1000 nM

Consider the additional compound presented here.
Query: Give recorded IC50. `O=C(O)c1cccc2c1OB(O)[C@@H](NC(=O)C1(c3ccccc3)CCNCC1)C2`
Result: 1000 to 10000 nM

###

# targetOrSystem: KPC-2 β-lactamase (Klebsiella pneumoniae)
# Construct: made in house; host or cells: E. coli BL21(DE3)
# assayRemarks: β-Lactamase inhibition enzyme assay, KPC-2
# Type: biochemical
# assaySetup: imipenem as substrate, 300 nm; 15 min at 37° C. with enzyme, PBS pH 7.4; read-out: Class A KPC-2 IC50
pIC50: −log10 of the molar value.
reportedMetric: pIC50

Worked cases, answers included:
compound	targetOrSystem	result
O=C(O)c1ccccc1C(=O)N[C@H]1Cc2cccc(C(=O)O)c2OB1O [Example 53]	KPC-2 β-lactamase (Klebsiella pneumoniae)	6.00 to 7.00
CC(C)NCc1ccc(C(=O)N[C@H]2Cc3cccc(C(=O)O)c3OB2O)cc1CNC(C)C [Example 56]	KPC-2 β-lactamase (Klebsiella pneumoniae)	> 7.00
O=C(O)c1cccc2c1OB(O)[C@@H](NC(=O)c1c[nH]c3ncccc13)C2 [Example 8]	KPC-2 β-lactamase (Klebsiella pneumoniae)	6.00 to 7.00
O=C(N[C@H]1Cc2cccc(C(=O)O)c2OB1O)c1ccc2nccnc2c1 [Example 29]	KPC-2 β-lactamase (Klebsiella pneumoniae)	> 7.00
CC(C)NCc1cc(C(=O)N[C@H]2Cc3cccc(C(=O)O)c3OB2O)ccc1CN [Example 55]	KPC-2 β-lactamase (Klebsiella pneumoniae)	5.00 to 6.00
O=C(Cc1ccc2c(c1)CNCC2)N[C@H]1Cc2cccc(C(=O)O)c2OB1O [Example 51]	KPC-2 β-lactamase (Klebsiella pneumoniae)	> 7.00
Cc1ccc(C(=O)N[C@H]2Cc3cccc(C(=O)O)c3OB2O)cc1N [Example 23]	KPC-2 β-lactamase (Klebsiella pneumoniae)	> 7.00

Consider the additional compound presented here.
Query: Give recorded pIC50. NCCOc1ccc(C(=O)N[C@H]2Cc3cccc(C(=O)O)c3OB2O)cc1O [Example 40]
Result: > 7.00

###

# targetOrSystem: KPC-2 β-lactamase (Klebsiella pneumoniae)
# Construct: made in house; host or cells: E. coli BL21(DE3)
# assayRemarks: β-Lactamase inhibition enzyme assay, KPC-2
# Format: biochemical
# assaySetup: imipenem as substrate, 300 nm; 15 min at 37° C. with enzyme, PBS pH 7.4; read-out: Class A KPC-2 IC50
pIC50: −log10 of the molar value.
reportedMetric: pIC50

structureString	targetOrSystem	pIC50
NCc1ccc(C(=O)N[C@H]2Cc3cccc(C(=O)O)c3OB2O)cc1CN	KPC-2 β-lactamase (Klebsiella pneumoniae)	6.00 to 7.00

Query: Report the value of pIC50 obtained on KPC-2 β-lactamase (Klebsiella pneumoniae) for `O=C(N[C@H]1Cc2cccc(C(=O)O)c2OB1O)c1ccc2[nH]ccc2c1` .
Result: > 7.00

Query: Report the value of pIC50 obtained on KPC-2 β-lactamase (Klebsiella pneumoniae) for `O=C(N[C@H]1Cc2cccc(C(=O)O)c2OB1O)c1cnc2[nH]ccc2c1` .
Result: > 7.00

Query: Report the value of pIC50 obtained on KPC-2 β-lactamase (Klebsiella pneumoniae) for `CN1Cc2ccc(C(=O)N[C@H]3Cc4cccc(C(=O)O)c4OB3O)cc2C1` .
Result: > 7.00

Query: Report the value of pIC50 obtained on KPC-2 β-lactamase (Klebsiella pneumoniae) for `NCCN1Cc2ccc(CC(=O)N[C@H]3Cc4cccc(C(=O)O)c4OB3O)cc2C1` .
Result: > 7.00

Query: Report the value of pIC50 obtained on KPC-2 β-lactamase (Klebsiella pneumoniae) for `NCCN1Cc2ccc(C(=O)N[C@H]3Cc4cccc(C(=O)O)c4OB3O)cc2C1` .
Result: > 7.00

###

# IC50 values compiled below
# targetOrSystem: SHV-5 β-lactamase (Klebsiella pneumoniae, UniProt P0A3M1)
# Sequence (P0A3M1 22-286): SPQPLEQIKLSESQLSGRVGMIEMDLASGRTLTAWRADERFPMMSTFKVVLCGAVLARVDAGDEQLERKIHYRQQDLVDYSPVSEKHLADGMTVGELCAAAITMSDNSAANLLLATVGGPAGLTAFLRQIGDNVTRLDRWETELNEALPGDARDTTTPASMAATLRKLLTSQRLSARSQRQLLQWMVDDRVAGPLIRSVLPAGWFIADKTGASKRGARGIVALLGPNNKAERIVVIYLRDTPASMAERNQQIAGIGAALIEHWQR
# assayRemarks: β-Lactamase inhibition enzyme assay, SHV-5

structureString	IC50
N=C(N)NCc1cc(CNC(=N)N)cc(C(=O)N[C@H]2Cc3cccc(C(=O)O)c3OB2O)c1	0.1 to 1 µM
NCCOc1ccc(CC(=O)N[C@H]2Cc3cccc(C(=O)O)c3OB2O)cc1OCCN	< 0.1 µM
NCc1cc(C(=O)N[C@H]2Cc3cccc(C(=O)O)c3OB2O)cnc1CN	< 0.1 µM

Consider the additional compound presented here.
Query: Give recorded IC50. `O=C(O)c1cccc2c1OB(O)[C@@H](NC(=O)c1c[nH]c3ncccc13)C2`
Result: < 0.1 µM

###

# pIC50 values compiled below
# targetOrSystem: KPC-2 β-lactamase (Klebsiella pneumoniae)
# Construct: made in house; host or cells: E. coli BL21(DE3)
# assayRemarks: β-Lactamase inhibition enzyme assay, KPC-2
# Format: biochemical
# assaySetup: imipenem as substrate, 300 nm; 15 min at 37° C. with enzyme, PBS pH 7.4; read-out: Class A KPC-2 IC50
pIC50: −log10 of the molar value.

Worked cases, answers included:
structureString	pIC50
O=C(N[C@H]1Cc2cccc(C(=O)O)c2OB1O)c1ccc2c(c1)CN(Cc1cccnc1)C2	> 7.00
NC1=Nc2cc(C(=O)N[C@H]3Cc4cccc(C(=O)O)c4OB3O)ccc2CN1	6.00 to 7.00
CNCc1ccc(C(=O)N[C@H]2Cc3cccc(C(=O)O)c3OB2O)cc1CNC	> 7.00

Consider the additional molecule presented here.
Query: Give recorded pIC50. `O=C(N[C@H]1Cc2cccc(C(=O)O)c2OB1O)c1ccc(-c2ncc[nH]2)cc1`
Result: > 7.00
